Data origin, for the record: patent US20140155410A1

- SYSTEM UNDER TEST: Full length Human FAK (Flag-His-TEV-FAK1) (Homo sapiens, UniProt Q05397)
- Construct: Full length Human FAK was expressed using baculovirus in Sf9 cells; made in house; host or cells: baculovirus in Sf9 cells
- Sequence (Q05397 whole entry): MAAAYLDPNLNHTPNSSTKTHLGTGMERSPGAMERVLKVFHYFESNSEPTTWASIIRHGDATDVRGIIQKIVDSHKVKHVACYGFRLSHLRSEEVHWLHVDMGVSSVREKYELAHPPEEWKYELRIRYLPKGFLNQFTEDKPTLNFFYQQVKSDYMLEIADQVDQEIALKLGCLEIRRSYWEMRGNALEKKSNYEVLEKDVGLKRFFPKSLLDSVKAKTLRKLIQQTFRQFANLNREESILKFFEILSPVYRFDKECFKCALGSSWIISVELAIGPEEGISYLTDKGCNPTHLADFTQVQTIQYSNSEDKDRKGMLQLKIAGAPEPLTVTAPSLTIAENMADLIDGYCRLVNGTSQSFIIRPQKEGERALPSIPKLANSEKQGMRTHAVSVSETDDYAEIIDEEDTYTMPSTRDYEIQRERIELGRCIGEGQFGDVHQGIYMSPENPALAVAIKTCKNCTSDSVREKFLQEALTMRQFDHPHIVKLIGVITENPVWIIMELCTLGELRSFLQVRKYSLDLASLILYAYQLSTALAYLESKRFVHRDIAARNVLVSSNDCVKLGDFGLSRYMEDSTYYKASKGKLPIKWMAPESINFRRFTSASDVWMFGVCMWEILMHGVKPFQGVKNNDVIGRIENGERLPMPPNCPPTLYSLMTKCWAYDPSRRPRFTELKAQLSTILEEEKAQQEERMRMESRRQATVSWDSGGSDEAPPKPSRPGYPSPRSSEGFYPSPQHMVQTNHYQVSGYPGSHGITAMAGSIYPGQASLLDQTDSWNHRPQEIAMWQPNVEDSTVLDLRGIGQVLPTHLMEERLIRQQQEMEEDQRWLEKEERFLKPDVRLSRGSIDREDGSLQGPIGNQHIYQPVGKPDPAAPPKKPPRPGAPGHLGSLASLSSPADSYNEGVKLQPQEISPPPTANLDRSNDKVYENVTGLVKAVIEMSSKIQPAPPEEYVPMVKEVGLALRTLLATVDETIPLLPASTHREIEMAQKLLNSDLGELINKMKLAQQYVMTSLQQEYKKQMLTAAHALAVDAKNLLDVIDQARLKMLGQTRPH
- MEASUREMENT NOTES: Biochemical assay for FAK activity, Assay 2: LANCE Ultra ULight peptide phosphorylation, 665 nm/615 nm ratio
- PROTOCOL CONDITIONS: Flag-His-TEV-FAK1, 10 μM ATP, 30 min pre-incubation; read-out: Assay 2 FAK H 31284A TRF PXC50 (converted)
ENDPOINT: IC50 (nM)
Give the value in nM but do not write nM after it.

CNC(=O)c1ccccc1Nc1cc(Nc2cc(C)nn2CCO)ncc1Cl; 20
CNC(=O)c1cccc(F)c1Nc1cc(Nc2cc(CCO)nn2C)ncc1C(F)(F)F; 0.794

Input line: Can you look up the measured IC50 of `CNC(=O)c1cccc(F)c1Nc1cc(Nc2cc(C)nn2C)ncc1C(F)(F)F` for me?
Output line: 1.58

Input line: Continue with `[2H]C([2H])(O)c1cc(Nc2cc(Nc3c(F)cccc3C(=O)NC)c(Cl)cn2)n(C)n1`
Output line: 10

Input line: Continue with `CCn1nc(C)cc1Nc1cc(Nc2ccccc2C(=O)NC)c(C(F)(F)F)cn1`
Output line: 1

Input line: Continue with `CONC(=O)c1cccc(F)c1Nc1cc(Nc2cc(C)nn2C(C)C)ncc1Cl`
Output line: 2.51
